These entries and their values trace back to ChEMBL document CHEMBL6115010.

System: SNB-19
assay_notes: Antiproliferative activity against human SNB-19 cells assessed as reduction in cell viability measured for 96 hrs by MTT assay
Assay type: functional, cell-based
condition_notes: SNB-19, 96 h
measurement_name: pIC50
Give bare numbers, as −log10 of the molar value.

Measured pIC50 (SNB-19), entry CC(C)=CCC/C(C)=C/CC/C(C)=C/CN1C(=O)c2cccc(O)c2Nc2c(O)cc(O)cc21 [DIAZEPINOMICIN] : 5.28

---

assay_notes: Cytotoxicity against rat ASK cells assessed as reduction in cell growth by SRB assay
Format: functional
condition_notes: read-out: ED50 (the source's name)
For each entry below, report its EC50 value.
Numbers only, in µg/mL.

COc1cc2c(cc1OC)-c1c3c(cc4ccnc(c14)C2=O)OCO3; 10.2

# batch: return EC50 for each of the 4 compounds below
1. COc1cc2c(cc1Oc1c(C=O)ccc(OC)c1OC)C(=O)c1nccc3c(OC)c(OC)c(OC)c-2c13
2. COc1c(OC)c(OC)c2c3c(cc4ccccc42)NC(=O)c13
3. COc1cc2c(cc1Oc1c(C=O)ccc(OC)c1OC)cc1c3c(c(OC)c(OC)c(OC)c32)CCN1C
4. COc1cc(OC)c2c(c1)C(=O)c1nccc3cc4c(c-2c13)OCO4

Result:
1: 10.2; 2: 12.8; 3: 2.11; 4: 2.11
